Just for reference, paper PMC2936338 is where these values come from.

- Test system: Hep3B liver cancer cells
- EXPERIMENT: MTT cell viability assay
- ASSAY_CONDITIONS: Homo sapiens, Hep3B, 72 h, read-out: IC50 values (μM), cell viability
VALUE_KIND: IC50 (µM)

I = COc1cc(/C=C/C(=O)CC(=O)/C=C/c2ccc(O)c(OC)c2)ccc1O
II = C[C@H](NC(=O)/C(C#N)=C/c1cccc(Br)n1)c1ccccc1
Hi, I'm comparing two records. Which one has the lower IC50, I or II ? Indicate which entry you chose by stating its label. II

---

List of IC50 values.
- System: Hep3B liver cancer cells
- EXPERIMENT: MTT cell viability assay
- ASSAY_CONDITIONS: read-out: IC50 values (μM), cell viability; Hep3B (L), MTT, 72 hours

Cc1ccc(S(=O)(=O)OCC(=O)Nc2ccc(C(=O)O)c(O)c2)cc1 ... > 100 µM
O=[N+]([O-])c1ccc2c(c1)S(=O)(=O)C=C2 ... 17.8 µM

Now for a further molecule.
IC50 lookup needed for N#C/C(=C/c1ccc(O)c(O)c1)C(=O)NCc1ccccc1 , thanks. > 100 µM

---

- System: SNU-449 liver cancer cells
- EXPERIMENT: MTT cell viability assay
- ASSAY_CONDITIONS: read-out: IC50 values (μM), cell viability; SNU-449 (L), MTT, 72 hours
VALUE_KIND: IC50

Cc1ccc(S(=O)(=O)OCC(=O)Nc2ccc(C(=O)O)c(O)c2)cc1 [S3I-201] ... > 100 µM
N#C/C(=C/c1ccc(O)c(O)c1)C(=O)NCc1ccccc1 [AG490] ... > 100 µM

Next item in the queue.
Give the measured IC50 of O=[N+]([O-])c1ccc2c(c1)S(=O)(=O)C=C2 [Stattic] . 2.5 µM
